Where these numbers come from: ChEMBL document CHEMBL4304834

ASSAY TARGET: Muscarinic acetylcholine receptor M4 (Homo sapiens, UniProt P08173)
Sequence (P08173 whole entry): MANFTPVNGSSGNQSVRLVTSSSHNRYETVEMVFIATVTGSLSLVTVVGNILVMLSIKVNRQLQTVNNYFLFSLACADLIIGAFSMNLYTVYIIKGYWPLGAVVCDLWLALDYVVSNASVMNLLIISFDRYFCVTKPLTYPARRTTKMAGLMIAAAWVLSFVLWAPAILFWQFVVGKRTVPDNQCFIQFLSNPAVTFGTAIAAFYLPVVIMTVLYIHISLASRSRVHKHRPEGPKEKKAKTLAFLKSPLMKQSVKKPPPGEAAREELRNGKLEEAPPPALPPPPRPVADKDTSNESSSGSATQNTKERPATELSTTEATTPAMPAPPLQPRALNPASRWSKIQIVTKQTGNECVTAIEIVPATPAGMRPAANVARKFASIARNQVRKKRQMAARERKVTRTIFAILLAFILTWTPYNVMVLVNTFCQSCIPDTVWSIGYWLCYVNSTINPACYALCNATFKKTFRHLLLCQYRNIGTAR
ASSAY COMMENT: Displacement of [3H]-QNB/[3H]-NMS from human recombinant Muscarinic acetylcholine M4 receptor expressed in stable CHO cells after 90 mins by microbeta scintillation counting method
Please provide measured Ki for the entries that follow.

// fetch Muscarinic acetylcholine receptor M4 (Homo sapiens, UniProt P08173) Ki for C[C@@]12CN(c3ccccc3)c3ccccc3[C@@H]1CCN2 (racemic)
> 10 µM

Could you do the same for CC[C@H]1c2ccccc2N(c2ccccc2)C[C@@]1(C)N (racemic) , please?
> 10 µM

Could you do the same for CC[C@H]1c2cc(OC)ccc2CC[C@@]1(C)N (racemic) , please?
> 10 µM

Could you do the same for COc1cc(OC)c2c(c1)OC[C@@]1(C)NCC[C@@H]21 (racemic) , please?
> 10 µM

Could you do the same for CC[C@H]1c2cc(C)ccc2OC[C@@]1(C)N (racemic) , please?
> 10 µM
